Numbers sourced from patent US20180228780A1.

- System: Primary human fibroblasts derived from IPF patients (LL29 cells)
- Measurement Protocol: Inhibition of the fibrotic process: αSMA staining in TGF-β1-treated LL29 fibroblasts
- Format: cell-based
- Test Context: Fibroblast, 96 h, LL29 cells, TGF-β1 20 ng/mL, 4 days, % αSMA-positive cells
- From the text: Representative compounds were screened using primary human fibroblasts (derived from IFF patients) treated with TGF-β1 to determine their ability to inhibit the fibrotic process. […]
pEC50: −log10 of the molar value.
Decide using pEC50: a value greater than or equal to 6 is class 1, a smaller one is class 0.

Structure Notation	Category Label
CN(C)Cc1cncc(-c2ccc3[nH]nc(-c4cc5c(-c6ccncc6)cncc5[nH]4)c3c2)c1	class 0
Fc1cccc(-c2cncc3[nH]c(-c4n[nH]c5ccc(-c6ccccn6)cc45)cc23)c1	class 1
Fc1cccc(-c2cncc3[nH]c(-c4n[nH]c5ccc(C6CCNCC6)cc45)cc23)c1	class 0
CN(C)CCOc1cncc(-c2ccc3[nH]nc(-c4cc5c(-c6ccc(F)cc6)cncc5[nH]4)c3c2)c1	class 1

input: Record Nc1cncc(-c2ccc3[nH]nc(-c4cc5c(-c6ccccc6F)cncc5[nH]4)c3c2)c1 ; criterion: pEC50 no lower than 6. Met?
output: class 0

input: Record CCCCC(=O)Nc1cncc(-c2ccc3[nH]nc(-c4cc5c(-c6cc(F)cc(CNS(C)(=O)=O)c6)cncc5[nH]4)c3c2)c1 ; criterion: pEC50 no lower than 6. Met?
output: class 0

###

- Test system: SW480 colon cancer cells
- Measurement Protocol: Cell viability assay (CellTiter-Blue) in SW480 colon cancer cells
- Assay type: cell-based
- Test Context: Homo sapiens, 96 h; SW480 cell viability, four days incubation
Test Readout: pEC50
Convention used: pEC50 is expressed as -log10 of the molar concentration.

Solved cases below.
Compound	pEC50
CN(C)Cc1cncc(-c2ccc3[nH]nc(-c4cc5c(-c6ccc(F)cc6)cncc5[nH]4)c3c2)c1 [Compound 41]	5.93
CC(C)Nc1cncc(-c2ccc3[nH]nc(-c4cc5c(-c6cccnc6)cncc5[nH]4)c3c2)c1 [Compound 96]	6.08

input: Return reported pEC50; argument: Fc1cccc(-c2cncc3[nH]c(-c4n[nH]c5ccc(-c6cccnc6)cc45)cc23)c1 [Compound 4]
output: 5.86

input: Return reported pEC50; argument: FC1(F)CCN(Cc2cncc(-c3ccc4[nH]nc(-c5cc6c(-c7cccnc7)cncc6[nH]5)c4c3)c2)C1 [Compound 110]
output: 5.89

input: Return reported pEC50; argument: Fc1cccc(-c2cncc3[nH]c(-c4n[nH]c5ccc(-c6cncc(CN7CCC(F)(F)C7)c6)cc45)cc23)c1 [Compound 26]
output: 6.13

input: Return reported pEC50; argument: CC(C)(C)C(=O)Nc1cncc(-c2ccc3[nH]nc(-c4cc5c(-c6ccc(F)cc6)cncc5[nH]4)c3c2)c1 [Compound 36]
output: 6.15

###

- System: Wnt activity (Sp5-Luc reporter, SW480 colon carcinoma cells)
- Measurement Protocol: Screening assay for Wnt activity: Sp5-Luc reporter gene assay in SW480 cells
- Format: cell-based
- Test Context: Homo sapiens; SW480 Sp5-Luc reporter, overnight incubation
Test Readout: pEC50
Convention used: pEC50 is expressed as -log10 of the molar concentration.

Solved cases below.
Structure Notation	Quantitative Readout
CN(C)CCOc1cncc(-c2ccc3[nH]nc(-c4cc5c(-c6ccc(F)cc6)cncc5[nH]4)c3c2)c1	5.70
NC1CN(c2cncc(-c3ccc4[nH]nc(-c5cc6c(N7CCCCC7)cncc6[nH]5)c4c3)n2)C1	6.13
COc1cncc(-c2ccc3[nH]nc(-c4cc5c(-c6ccsc6)cncc5[nH]4)c3c2)c1	6.02

Pending compound:
input: Return reported pEC50; argument: CC(C)CC(=O)Nc1cncc(-c2ccc3[nH]nc(-c4cc5c(-c6ccncc6)cncc5[nH]4)c3c2)c1
output: 6.06

###

Each entry below lists one item and its recorded pEC50 value.
- System: Primary human fibroblasts derived from IPF patients (LL29 cells)
- Measurement Protocol: Inhibition of the fibrotic process: αSMA staining in TGF-β1-treated LL29 fibroblasts
- Assay type: cell-based
- Test Context: Fibroblast, 96 h, LL29 cells, TGF-β1 20 ng/mL, 4 days, % αSMA-positive cells
Convention used: pEC50 is expressed as -log10 of the molar concentration.

Compound	Target Or Test System	pEC50
COc1cncc(-c2ccc3[nH]nc(-c4cc5c(-c6ccoc6)cncc5[nH]4)c3c2)c1 [Compound 692]	Primary human fibroblasts derived from IPF patients (LL29 cells)	6.14

input: Return reported pEC50; argument: CS(=O)(=O)NCc1cc(F)cc(-c2cncc3[nH]c(-c4n[nH]c5ccc(-c6cncc(OCc7ccccc7)c6)cc45)cc23)c1 [Compound 774]
output: 5.83

input: Return reported pEC50; argument: Cc1ccncc1-c1ccc2[nH]nc(-c3cc4ccncc4[nH]3)c2c1 [Compound 257]
output: 6.32

input: Return reported pEC50; argument: CC(C)C(=O)Nc1cncc(-c2ccc3[nH]nc(-c4cc5c(-c6cccnc6)cncc5[nH]4)c3c2)c1 [Compound 93]
output: 6.76

input: Return reported pEC50; argument: c1ccc(-c2ccc3[nH]nc(-c4cc5c(-c6ccncc6)cncc5[nH]4)c3c2)nc1 [Compound 140]
output: 6.12

input: Return reported pEC50; argument: CCCCC(=O)Nc1cncc(-c2ccc3[nH]nc(-c4cc5c(-c6ccccc6F)cncc5[nH]4)c3c2)c1 [Compound 75]
output: 5.94

input: Return reported pEC50; argument: CC(C)CC(=O)Nc1cncc(-c2ccc3[nH]nc(-c4cc5c(N6CCCCC6)cncc5[nH]4)c3c2)c1 [Compound 170]
output: 6.26

input: Return reported pEC50; argument: O=C(Nc1cncc(-c2ccc3[nH]nc(-c4cc5c(-c6cccs6)cncc5[nH]4)c3c2)c1)C1CC1 [Compound 356]
output: 7.08

###

- Test system: Wnt activity (Sp5-Luc reporter, SW480 colon carcinoma cells)
- Measurement Protocol: Screening assay for Wnt activity: Sp5-Luc reporter gene assay in SW480 cells
- Type: cell-based
- Test Context: Homo sapiens; SW480 Sp5-Luc reporter, overnight incubation
Each entry below lists one item and its recorded pEC50 value.
Convention used: pEC50 is expressed as -log10 of the molar concentration.

Structure Notation	Quantitative Readout
CCCCC(=O)Nc1cncc(-c2ccc3[nH]nc(-c4cc5c(-c6cc(F)cc(CNS(C)(=O)=O)c6)cncc5[nH]4)c3c2)c1	5.76
CC(C)(C)CC(=O)Nc1cncc(-c2ccc3[nH]nc(-c4cc5c(-c6ccccc6F)cncc5[nH]4)c3c2)c1	6.14

Pending compound:
input: Return reported pEC50; argument: Fc1cccc(-c2cncc3[nH]c(-c4n[nH]c5ccc(-c6cncc(CN7CCC(F)(F)C7)c6)cc45)cc23)c1
output: 6.80

###

- Test system: SW480 colon cancer cells
- Measurement Protocol: Cell viability assay (CellTiter-Blue) in SW480 colon cancer cells
- Format: cell-based
- Test Context: Homo sapiens, 96 h; SW480 cell viability, four days incubation
Entries whose EC50 is below 1 µM take label 1; entries at or above 1 µM take label 0.

Structure Notation	Target Or Test System	Category Label
CS(=O)(=O)NCc1cc(F)cc(-c2cncc3[nH]c(-c4n[nH]c5ccc(-c6cncc(OCc7ccccc7)c6)cc45)cc23)c1	SW480 colon cancer cells	label 0
Cc1ncc(-c2ccc3[nH]nc(-c4cc5c(-c6ccncc6)cncc5[nH]4)c3c2)n1C	SW480 colon cancer cells	label 0

input: State whether 1 µM exceeds EC50 recorded for O=C(Nc1cncc(-c2ccc3[nH]nc(-c4cc5c(-c6ccc(F)cc6)cncc5[nH]4)c3c2)c1)C1CCC1 .
output: label 1

input: State whether 1 µM exceeds EC50 recorded for c1ccc(-c2ccc3[nH]nc(-c4cc5c(-c6ccncc6)cncc5[nH]4)c3c2)nc1 .
output: label 0

input: State whether 1 µM exceeds EC50 recorded for CCCC(=O)Nc1cncc(-c2ccc3[nH]nc(-c4cc5c(-c6cccc(F)c6)cncc5[nH]4)c3c2)c1 .
output: label 1

input: State whether 1 µM exceeds EC50 recorded for Fc1ccccc1-c1cncc2[nH]c(-c3n[nH]c4ccc(-c5cncc(CN6CCCCC6)c5)cc34)cc12 .
output: label 0

###

Each entry below lists one item and its recorded pEC50 value.
- System: Wnt activity (Sp5-Luc reporter, SW480 colon carcinoma cells)
- Measurement Protocol: Screening assay for Wnt activity: Sp5-Luc reporter gene assay in SW480 cells
- Format: cell-based
- Test Context: Homo sapiens; SW480 Sp5-Luc reporter, overnight incubation
Convention used: pEC50 is expressed as -log10 of the molar concentration.

input: Field: pEC50 (Wnt activity (Sp5-Luc reporter, SW480 colon carcinoma cells)). Entry: Fc1cccc(-c2cncc3[nH]c(-c4n[nH]c5ccc(C6CCNCC6)cc45)cc23)c1
output: 5.49

input: Field: pEC50 (Wnt activity (Sp5-Luc reporter, SW480 colon carcinoma cells)). Entry: CN1CCN(c2cncc3[nH]c(-c4n[nH]c5ccc(-c6cncc(NC(=O)CC(C)(C)C)c6)cc45)cc23)CC1
output: 5.46

input: Field: pEC50 (Wnt activity (Sp5-Luc reporter, SW480 colon carcinoma cells)). Entry: O=C(Nc1cncc(-c2ccc3[nH]nc(-c4cc5c(-c6ccc(F)cc6)cncc5[nH]4)c3c2)c1)C1CCC1
output: 6.62

input: Field: pEC50 (Wnt activity (Sp5-Luc reporter, SW480 colon carcinoma cells)). Entry: CC(C)Nc1cncc(-c2ccc3[nH]nc(-c4cc5c(-c6cccnc6)cncc5[nH]4)c3c2)c1
output: 6.17

input: Field: pEC50 (Wnt activity (Sp5-Luc reporter, SW480 colon carcinoma cells)). Entry: CN(C)Cc1cncc(-c2cc3c(-c4cc5c(-c6cccc(F)c6)cncc5[nH]4)n[nH]c3cc2F)c1
output: 6.02

input: Field: pEC50 (Wnt activity (Sp5-Luc reporter, SW480 colon carcinoma cells)). Entry: CS(=O)(=O)NCc1cc(F)cc(-c2cncc3[nH]c(-c4n[nH]c5ccc(-c6cncc(NC(=O)C7CCC7)c6)cc45)cc23)c1
output: 6.26
